- SYSTEM_TESTED: recombinant GSK3β kinase (Homo sapiens (Human), UniProt P49841)
- Sequence (P49841 whole entry): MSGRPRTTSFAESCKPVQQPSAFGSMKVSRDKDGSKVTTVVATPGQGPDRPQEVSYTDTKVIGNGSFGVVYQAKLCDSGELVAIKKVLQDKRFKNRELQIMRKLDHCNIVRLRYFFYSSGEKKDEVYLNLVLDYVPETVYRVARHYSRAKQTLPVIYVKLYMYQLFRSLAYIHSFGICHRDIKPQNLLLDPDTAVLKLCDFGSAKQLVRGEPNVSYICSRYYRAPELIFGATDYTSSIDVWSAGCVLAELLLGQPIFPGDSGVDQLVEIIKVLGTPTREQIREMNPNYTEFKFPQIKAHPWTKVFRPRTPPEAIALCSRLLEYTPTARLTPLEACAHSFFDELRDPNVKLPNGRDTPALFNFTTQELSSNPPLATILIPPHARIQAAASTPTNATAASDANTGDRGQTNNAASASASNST
- PROCEDURE_TEXT: GSK3β kinase assay (Ser/Thr 09 peptide Z-lyte FRET);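 further: kinase activity read as coumarin to fluorescein emission ratio, 11-point threefold dilutions from 10 µM to 0.0003 µM in duplicate, unphosphorylated and phosphorylated peptide as 0% and 100% controls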
- DETAILS: 46 μM ATP, 1 h room temperature

>  <COMPOUND>
Cc1ncc(-c2ccc3cnc(NC(=O)C4CC(F)(F)C4)cc3c2)n1C [Compound 268]

>  <SYSTEM_TESTED>
recombinant GSK3β kinase (Homo sapiens (Human), UniProt P49841)

>  <EC50 / nM>
17

$$$$
>  <COMPOUND>
Cn1cc(-c2ccc3cnc(NC(=O)C4CCN(CC(=O)OC(C)(C)C)CC4)cc3c2)cn1 [Compound 1010]

>  <SYSTEM_TESTED>
recombinant GSK3β kinase (Homo sapiens (Human), UniProt P49841)

>  <EC50 / nM>
53

$$$$
>  <COMPOUND>
C[C@@H](C(=O)Nc1cc2cc(-c3cnn(C)c3)ccc2cn1)N1CCOCC1 [Compound 348]

>  <SYSTEM_TESTED>
recombinant GSK3β kinase (Homo sapiens (Human), UniProt P49841)

>  <EC50 / nM>
221

$$$$
>  <COMPOUND>
Cn1cc(-c2ccc3cnc(NC(=O)[C@H]4CC[C@H](N)CC4)cc3c2)cn1 [Compound 365]

>  <SYSTEM_TESTED>
recombinant GSK3β kinase (Homo sapiens (Human), UniProt P49841)

>  <EC50 / nM>
52

$$$$
